System: K562
Test: Antiproliferative activity in human K562 cells after 48 hrs by MTT assay
Format: functional, cell-based
Conditions: K562, 48 h
Readout kind: IC50 (µM)

                            molecular_string  readout_kind  comparison_symbol  experimental_value
 0  Oc1ccc2cc1Oc1ccc(cc1)CCc1cccc(OCCN3CCCC3)c1-c1ccc(cc1O)CC2          IC50                  =                2.22
 1  COc1ccc(N2CCN(Cc3cc4cc(c3O)Oc3ccc(cc3)CCc3ccc(CN5CCN(c6ccc(OC)cc6)CC5)c(O)c3-c3ccc(cc3O)CC4)CC2)cc1          IC50                  >                  20
 2  Oc1ccc2cc1Oc1ccc(cc1)CCc1cccc(OCCCN3CCCC3)c1-c1ccc(cc1O)CC2          IC50                  =                2.94
 3  CC(C)(C)OC(=O)N1CCN(Cc2ccc3c(c2O)-c2ccc(cc2O)CCc2ccc(O)c(c2)Oc2ccc(cc2)CC3)CC1          IC50                  >                  20
 4  Nc1cc2cc(c1O)Oc1ccc(cc1)CCc1cccc(O)c1-c1ccc(cc1O)CC2          IC50                  >                  20
 5  Oc1ccc2cc1Oc1ccc(cc1)CCc1ccc(CN3CCN(Cc4ccccc4)CC3)c(O)c1-c1ccc(cc1O)CC2          IC50                  >                  20
 6  Oc1ccc2cc1Oc1ccc(cc1)CCc1cccc(OCCN3CCCCC3)c1-c1ccc(cc1O)CC2          IC50                  =                2.31
 7  CN(C)CCCOc1ccc2cc1Oc1ccc(cc1)CCc1cccc(OCCCN(C)C)c1-c1ccc(cc1OCCCN(C)C)CC2          IC50                  =                 2.5
 8  Oc1ccc2cc1Oc1ccc(cc1)CCc1cccc(OCCN3CCOCC3)c1-c1ccc(cc1O)CC2          IC50                  =                10.1
 9  CCCCN(CCCC)Cc1cc2cc(c1O)Oc1ccc(cc1)CCc1ccc(CN(CCCC)CCCC)c(O)c1-c1ccc(cc1O)CC2          IC50                  >                  20
10  Oc1cc2ccc1-c1c(ccc(CN3CCC(O)CC3)c1O)CCc1ccc(cc1)Oc1cc(cc(CN3CCC(O)CC3)c1O)CC2          IC50                  =                2.56
11  Oc1ccc2cc1Oc1ccc(cc1)CCc1ccc(CN3CCSCC3)c(O)c1-c1ccc(cc1O)CC2          IC50                  =                13.4
12  Oc1ccc2cc1Oc1ccc(cc1)CCc1ccc(CN3CCC(O)CC3)c(O)c1-c1ccc(cc1O)CC2          IC50                  =                7.07
13  c1cc2c(c(OCCN3CCCCCC3)c1)-c1ccc(cc1OCCN1CCCCCC1)CCc1ccc(OCCN3CCCCCC3)c(c1)Oc1ccc(cc1)CC2          IC50                  =                0.26
14  Oc1ccc2cc1Oc1ccc(cc1)CCc1ccc(CN3CCCCC3)c(O)c1-c1ccc(cc1O)CC2          IC50                  =                5.88
15  CCN(CC)Cc1ccc2c(c1O)-c1ccc(cc1O)CCc1ccc(O)c(c1)Oc1ccc(cc1)CC2          IC50                  =                7.86
16  CCN(CC)CCOc1cccc2c1-c1ccc(cc1O)CCc1ccc(O)c(c1)Oc1ccc(cc1)CC2          IC50                  =                2.23
